- STUDY_SYSTEM: α4β4 nAChR (Rattus norvegicus, UniProt P09483+P12392)
- MEASUREMENT_PROTOCOL: Competition binding vs 500 pM [3H]EB, stably transfected HEK cells
READOUT_NAME: Ki (nM)
One number for each entry, in nM.

# get_value(readout='Ki', item= CN1CCC[C@H]1COc1cccnc1 [A-84543, reference compound] )
150

* * *

- STUDY_SYSTEM: α2β2 nAChR (Rattus norvegicus, UniProt P12389+P12390)
- MEASUREMENT_PROTOCOL: Competition binding vs 500 pM [3H]EB, stably transfected HEK cells
READOUT_NAME: Ki (nM)
Answers are plain numbers, in nM.

Any idea what its Ki is? The compound is CN1CCC[C@H]1COc1cccnc1 [A-84543, reference compound]
2
